# target_desc: HLA-A*6802 (human)
# assay: competitive inhibition of 125I-labelled standard peptide binding to purified HLA
# condition_label: remark: other sources report otherwise
measured_property: pIC50
Bear in mind: pIC50 is minus log10 of a mol/L concentration; give just that figure.

## Task // pIC50 lookup, key: LMLLRLSEPA (modifications not checked) [Peptide 63.0014, … (PSA.117)]
## Result 5.30

## Task // pIC50 lookup, key: TLSVTWIGV (modifications not checked) [Peptide 60.0217, … (PSA.5.V9)]
## Result 6.64

Values compiled from patent US20070020327A1.
